Target: UniProt:P08908
Sequence (P08908 1-422): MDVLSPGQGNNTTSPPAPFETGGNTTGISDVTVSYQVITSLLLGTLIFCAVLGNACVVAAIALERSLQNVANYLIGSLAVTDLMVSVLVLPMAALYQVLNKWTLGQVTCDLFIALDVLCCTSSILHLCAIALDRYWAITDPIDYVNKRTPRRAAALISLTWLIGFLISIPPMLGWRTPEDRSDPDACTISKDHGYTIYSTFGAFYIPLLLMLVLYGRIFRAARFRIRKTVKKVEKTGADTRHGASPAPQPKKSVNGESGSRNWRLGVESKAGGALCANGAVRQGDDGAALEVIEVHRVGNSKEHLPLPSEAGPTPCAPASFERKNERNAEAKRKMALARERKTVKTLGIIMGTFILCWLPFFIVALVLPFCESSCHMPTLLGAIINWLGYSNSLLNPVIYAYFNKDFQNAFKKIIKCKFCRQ

>  <query-smiles>
C1=C(c2c[nH]c3ncccc23)CCN(CCOc2cccc3c2OCCO3)C1

>  <measurement-unit>
nM

>  <Ki>
43.9

$$$$
>  <query-smiles>
C1=C(c2c[nH]c3ncccc23)CCN(CCOc2cccc3ncccc23)C1

>  <measurement-unit>
nM

>  <Ki>
71.6

$$$$
>  <query-smiles>
C1=C(c2c[nH]c3ncccc23)CCN(CCOc2cccc3[nH]ccc23)C1

>  <measurement-unit>
nM

>  <Ki>
10.9

$$$$
